// data source = patent US20230374132A1

Listed next: entries and their corresponding Kd.
target-entity: T1, human CD3 E&D complex protein (Sino Biological Inc., CT026H0323H) (human, UniProt P07766 23-126; P04234 22-105)
T1 construct: bought heterodimer; also called human CD3 protein (CT026H0323H)
T1 sequence (P07766 23-126, chain 1 of 2): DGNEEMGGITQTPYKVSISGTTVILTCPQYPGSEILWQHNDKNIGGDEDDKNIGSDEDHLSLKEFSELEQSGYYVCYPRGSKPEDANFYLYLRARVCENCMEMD
T1 sequence (P04234 22-105, chain 2 of 2): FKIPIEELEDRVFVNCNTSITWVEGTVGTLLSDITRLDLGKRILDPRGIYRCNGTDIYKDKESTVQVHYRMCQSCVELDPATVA
protocol-details: BLI, antibody on sensor

- binder: "hzsp34.38 (antibody, human IgG1, kappa, L234A L235A, V domains shown, IgG1 L234A L235A, kappa) VH: EVQLVESGGGLVQPGGSLKLSCAASGFTFNTYAMNWVRQASGKGLEWVGRIRSKYNNYATYYADSVKDRFTISRDDSKSTLYLQMNSLKTEDTAVYYCARHGNFGNSYVSWFAYWGQGTTVTVSS VL: EIVMTQSPATLSVSPGERATLSCRSSTGAVTTSNYANWVQQKPGQAPRGLIGGTNKRAPGVPARFSGSGSGTEFTLTISSLQSEDFAVYYCALWYSNLWVFGQGTKLTVLR"
  uom: "nM"
  Kd: 12.7
- binder: "hzsp34.14 (antibody, human IgG1, lambda, L234A L235A, V domains shown, IgG1 L234A L235A, lambda) VH: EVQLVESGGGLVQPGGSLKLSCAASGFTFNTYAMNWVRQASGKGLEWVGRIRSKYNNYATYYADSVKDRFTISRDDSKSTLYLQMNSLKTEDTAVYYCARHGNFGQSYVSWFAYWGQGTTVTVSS VL: QAVVTQEPSLTVSPGGTVTLTCRSSTGAVTTSNYANWVQQKPGQAPRTLIGGTNKRAPGVPARFSGSLLGGKAALTLLGAQPEDEAEYYCALWYSNLWVFGQGTKLTVLG"
  uom: "nM"
  Kd: 2.41
- binder: "hzsp34.42 (antibody, human IgG1, kappa, L234A L235A, V domains shown, IgG1 L234A L235A, kappa) VH: EVQLVESGGGLVQPGGSLKLSCAASGFTFNTYAMNWVRQASGKGLEWVGRIRSKYNNYATYYADSVKDRFTISRDDSKNTLYLQMNSLKTEDTAVYYCARHGNFGNSYVSWFAYWGQGTTVTVSS VL: EIVMTQSPATLSVSPGERATLSCRSSTGAVTTSNYANWVQQKPGQAPRGLIGGTNKRAPGVPARFSGSGSGDEFTLTISSLQSEDFAVYYCALWYSNLWVFGQGTKLTVLR"
  uom: "nM"
  Kd: 14.7
- binder: "hzsp34.23 (antibody, human IgG1, lambda, L234A L235A, V domains shown, IgG1 L234A L235A, lambda) VH: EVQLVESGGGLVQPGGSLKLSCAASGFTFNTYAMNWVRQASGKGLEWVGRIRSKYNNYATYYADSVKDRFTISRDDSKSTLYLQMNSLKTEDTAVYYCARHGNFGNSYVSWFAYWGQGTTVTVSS VL: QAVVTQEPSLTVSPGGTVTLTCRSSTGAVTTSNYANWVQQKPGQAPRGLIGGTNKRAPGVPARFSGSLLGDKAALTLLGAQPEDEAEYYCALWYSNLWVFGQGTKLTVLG"
  uom: "nM"
  Kd: 0.554
- binder: "hzsp34.17 (antibody, human IgG1, lambda, L234A L235A, V domains shown, IgG1 L234A L235A, lambda) VH: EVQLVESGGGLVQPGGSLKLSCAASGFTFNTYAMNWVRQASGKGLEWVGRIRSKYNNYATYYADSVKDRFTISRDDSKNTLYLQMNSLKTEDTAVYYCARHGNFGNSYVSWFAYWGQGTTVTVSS VL: QAVVTQEPSLTVSPGGTVTLTCRSSTGAVTTSNYANWVQQKPGQAPRGLIGGTNKRAPGVPARFSGSLLGGKAALTLLGAQPEDEAEYYCALWYSNLWVFGQGTKLTVLG"
  uom: "nM"
  Kd: 0.51
- binder: "hzsp34.45 (antibody, human IgG1, kappa, L234A L235A, V domains shown, IgG1 L234A L235A, kappa) VH: EVQLVESGGGLVQPGGSLKLSCAASGFTFNTYAMNWVRQASGKGLEWVARIRSKYNNYATYYADSVKDRFTISRDDSKSTLYLQMNSLKTEDTAVYYCARHGNFGQSYVSWFAYWGQGTTVTVSS VL: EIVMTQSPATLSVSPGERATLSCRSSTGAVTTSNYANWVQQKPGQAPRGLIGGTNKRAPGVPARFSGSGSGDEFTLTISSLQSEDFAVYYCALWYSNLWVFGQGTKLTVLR"
  uom: "nM"
  Kd: 18.4
- binder: "hzsp34.39 (antibody, human IgG1, kappa, L234A L235A, V domains shown, IgG1 L234A L235A, kappa) VH: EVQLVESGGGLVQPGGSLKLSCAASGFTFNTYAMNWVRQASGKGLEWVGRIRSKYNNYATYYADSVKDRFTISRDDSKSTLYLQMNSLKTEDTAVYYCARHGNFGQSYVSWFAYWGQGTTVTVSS VL: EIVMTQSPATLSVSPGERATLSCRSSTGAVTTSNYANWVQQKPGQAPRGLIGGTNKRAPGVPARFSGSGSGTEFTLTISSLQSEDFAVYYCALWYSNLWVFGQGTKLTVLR"
  uom: "nM"
  Kd: 7.85
- binder: "hzsp34.13 (antibody, human IgG1, lambda, L234A L235A, V domains shown, IgG1 L234A L235A, lambda) VH: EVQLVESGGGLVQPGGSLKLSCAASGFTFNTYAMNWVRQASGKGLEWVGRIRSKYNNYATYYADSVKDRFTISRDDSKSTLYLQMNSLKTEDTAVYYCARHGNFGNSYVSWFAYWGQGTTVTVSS VL: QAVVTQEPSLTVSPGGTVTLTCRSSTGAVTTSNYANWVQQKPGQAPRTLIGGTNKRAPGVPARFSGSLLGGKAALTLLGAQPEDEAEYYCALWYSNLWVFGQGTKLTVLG"
  uom: "nM"
  Kd: 4.33
- binder: "hzsp34.18 (antibody, human IgG1, lambda, L234A L235A, V domains shown, IgG1 L234A L235A, lambda) VH: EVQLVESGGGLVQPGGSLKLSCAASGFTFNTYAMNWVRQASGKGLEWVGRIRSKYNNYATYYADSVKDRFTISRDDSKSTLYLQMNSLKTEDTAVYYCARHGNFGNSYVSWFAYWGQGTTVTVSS VL: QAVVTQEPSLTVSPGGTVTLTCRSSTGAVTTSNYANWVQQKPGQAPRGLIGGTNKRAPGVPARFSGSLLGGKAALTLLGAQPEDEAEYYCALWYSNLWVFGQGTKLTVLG"
  uom: "nM"
  Kd: 0.629
- binder: "hzsp34.24 (antibody, human IgG1, lambda, L234A L235A, V domains shown, IgG1 L234A L235A, lambda; parent of the CDR mutants) VH: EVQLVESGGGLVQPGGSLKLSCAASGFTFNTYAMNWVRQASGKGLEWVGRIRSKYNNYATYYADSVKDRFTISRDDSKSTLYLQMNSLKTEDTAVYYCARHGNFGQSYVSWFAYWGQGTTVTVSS VL: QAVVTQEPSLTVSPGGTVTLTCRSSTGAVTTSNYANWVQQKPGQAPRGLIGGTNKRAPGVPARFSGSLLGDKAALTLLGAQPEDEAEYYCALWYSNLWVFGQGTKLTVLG"
  uom: "nM"
  Kd: 0.718
